- PROCEDURE SUMMARY: PCB concentrations in plasma of HELPcB participants (2010)
- Type: in vivo, human
- COND: human, plasma, other: occupational exposure, HELPcB participant seven, sample of 2010
MEASUREMENT TYPE: concentration at 2010 calendar year (ng/mL)
The reply should be a number in ng/mL, with the unit left off.

Use these answered entries as a reference point.
MOL SMILES: Clc1cc(Cl)c(-c2cc(Cl)c(Cl)c(Cl)c2Cl)cc1Cl
concentration at 2010 calendar year / ng/mL: 0.934

MOL SMILES: Clc1ccc(-c2ccc(Cl)cc2Cl)cc1
concentration at 2010 calendar year / ng/mL: 0.051

MOL SMILES: Clc1ccc(Cl)c(-c2cc(Cl)ccc2Cl)c1
concentration at 2010 calendar year / ng/mL: 0.021

Now turn to the next molecule.
Q: Look up concentration at 2010 calendar year for this molecule: `Clc1ccc(Cl)c(-c2cc(Cl)c(Cl)cc2Cl)c1`
Result: 0.03
